MEASUREMENT TARGET: Tyrosine-protein kinase BTK (Homo sapiens) (UniProt Q06187);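 also: values are mean percent inhibition of BTK across replicate measurements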
Sequence (Q06187 whole entry): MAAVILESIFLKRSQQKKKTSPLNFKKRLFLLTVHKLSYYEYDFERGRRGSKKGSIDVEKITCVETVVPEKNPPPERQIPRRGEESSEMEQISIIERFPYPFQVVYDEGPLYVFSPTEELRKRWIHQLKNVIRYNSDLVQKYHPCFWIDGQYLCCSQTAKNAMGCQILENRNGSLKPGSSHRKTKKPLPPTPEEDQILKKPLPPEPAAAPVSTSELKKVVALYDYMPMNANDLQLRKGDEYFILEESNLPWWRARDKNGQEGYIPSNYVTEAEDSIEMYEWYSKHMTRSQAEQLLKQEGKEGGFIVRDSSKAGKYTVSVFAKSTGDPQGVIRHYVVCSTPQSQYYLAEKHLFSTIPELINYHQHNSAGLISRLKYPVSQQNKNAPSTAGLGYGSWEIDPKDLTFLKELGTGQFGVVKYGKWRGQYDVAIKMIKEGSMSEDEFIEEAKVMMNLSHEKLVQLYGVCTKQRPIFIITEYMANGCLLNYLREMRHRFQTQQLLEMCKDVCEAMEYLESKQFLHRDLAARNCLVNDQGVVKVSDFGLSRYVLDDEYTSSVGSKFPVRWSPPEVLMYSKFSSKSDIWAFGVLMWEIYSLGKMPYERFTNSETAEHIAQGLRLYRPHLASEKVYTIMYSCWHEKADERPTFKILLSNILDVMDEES
TEST PARAMETERS: at 1 µM
MEASUREMENT TYPE: inhibition (%)

> print(dat)
                                    molecule  units.of.measure  measured.value
 1  COc1ccc2cc(-c3c(-c4ccncc4)nc(-c4ccc([S+](C)[O-])cc4C)n3C)ccc2c1 (stereo not given)                 %            0.66
 2  Fc1ccc(-c2ncn(C3CCNCC3)c2-c2ccnc(Oc3ccc(Oc4ccccc4)cc3)n2)cc1                 %            0.33
 3    Clc1ccc(CNc2nccc(-c3cnn4ncccc34)n2)cc1                 %             1.7
 4  COc1cc2ncn(-c3cc(OCCc4ccccc4)c(C(N)=O)s3)c2cc1OC                 %            0.02
 5  O=C(NCC1CC1)c1ccc(-c2cccc(C(=O)NC3CC3)c2)cc1                 %            1.69
 6  O=C(Nc1ccc(Oc2ccc3[nH]c(NC(=O)c4ccccc4)nc3c2)cc1)Nc1cc(C(F)(F)F)ccc1F                 %            3.03
 7  CS(=O)(=O)CCNCc1cc(-c2cc3c(Nc4ccc(OCc5cccc(F)c5)c(Cl)c4)ncnc3s2)cs1                 %            0.76
 8    O=C(Nc1n[nH]c2cc(-c3ccccc3)ccc12)C1CC1                 %            2.12
 9        CNC(=O)c1cncc(/C=C/c2c(C)cccc2C)c1                 %            7.27
10  CCc1ccc(Oc2nccc(-c3c(-c4ccc(F)cc4)ncn3C3CCNCC3)n2)cc1                 %            0.53
11       Fc1ccc(-c2c(-c3ccncc3)nc3n2CCS3)cc1                 %           -4.99
12  CN1CCN(CCCNc2nc3ccc(Oc4ccc(NC(=O)Nc5cc(C(F)(F)F)ccc5F)cc4)cc3[nH]2)CC1                 %            1.43
13  CN(C)c1ccc2c(c1)/C(=C/Nc1ccc(S(N)(=O)=O)cc1)C(=O)N2                 %           -0.24
14  CN(C)CCCNc1nccc(-c2c(-c3ccc(F)cc3)nn3cc(C(F)(F)F)ccc23)n1                 %            -2.3
15  NS(=O)(=O)c1ccc(Nc2cc(-c3ccc(O)c(F)c3)n[nH]2)cc1                 %           -0.82
16  COc1ccc2cc(-c3c(-c4ccncc4)nc(-c4ccc(S(C)(=O)=O)cc4C)n3C)ccc2c1                 %            0.28
17     NCc1ccc(-n2c(-c3nonc3N)nc3cnccc32)cc1                 %            0.66
18  C#Cc1cccc(Nc2ncnc3ccc(OCCCCNCCS(C)(=O)=O)cc23)c1                 %             1.2
19  Fc1ccc(-c2ncn(C3CCNCC3)c2-c2ccnc(Oc3ccc4c(c3)OCO4)n2)cc1                 %            0.77
20  COc1cc(Nc2ncc3c(C)nc(-c4cccc(C(F)(F)F)c4)n3n2)cc(OC)c1OC                 %            4.31
